The reported numbers originate from ChEMBL document CHEMBL3044826.

Quick reference: inhibition of growth at 10 µM of the listed items.
# Test system: 786-0
# testName: Cytotoxicity against Homo sapiens (human) 786-0 cells assessed as growth inhibition at 10 uM after 48 hr by coulter counter analysis
# Type: functional
# conditionParameters: 786-0, 48 h, read-out: GI

O=C1c2ccccc2C(=O)N1CCCSc1nc2ccccc2c(=O)n1CCc1ccccc1 :: 13%
O=c1c2ccccc2nc(SCc2ccc([N+](=O)[O-])cc2)n1CCc1ccccc1 :: < 10%
O=C(CSc1nc2ccccc2c(=O)n1CCc1ccccc1)c1ccccc1 :: < 10%

Please look up its inhibition of growth at 10 µM: O=c1c2ccccc2nc(SCCN2CCOCC2)n1CCc1ccccc1 < 10%

Which inhibition of growth at 10 µM is listed for O=c1c2ccccc2nc(SCc2nnc(S)n2Cc2ccccc2)n1CCc1ccccc1 ? < 10%

---

# Test system: ACHN
# testName: Cytotoxicity against Homo sapiens (human) ACHN cells assessed as growth inhibition at 10 uM after 48 hr by coulter counter analysis
# Format: functional
# conditionParameters: read-out: GI
resultType: inhibition of growth at 10 µM

COc1ccc(-n2c(S)nnc2CSc2nc3ccccc3c(=O)n2CCc2ccccc2)cc1 :: < 10%

Name the recorded inhibition of growth at 10 µM for O=c1c2ccccc2nc(SCc2nnc(S)n2-c2ccccc2)n1CCc1ccccc1 . < 10%

// returns reported inhibition of growth at 10 µM for input CCn1c(S)nnc1CSc1nc2ccccc2c(=O)n1CCc1ccccc1 15%

What value of inhibition of growth at 10 µM has been recorded for this entry: O=C1c2ccccc2C(=O)N1CCCSc1nc2ccccc2c(=O)n1CCc1ccccc1 < 10%

Find the recorded inhibition of growth at 10 µM belonging to O=C(CSc1nc2ccccc2c(=O)n1CCc1ccccc1)c1ccc(F)cc1 and report it. 24%

What value of inhibition of growth at 10 µM has been reported for the following molecule? O=c1c2ccccc2nc(SCCN2CCCCC2)n1CCc1ccccc1 < 10%

Looking for the measured inhibition of growth at 10 µM of O=c1c2ccccc2nc(SCc2nnc(S)n2Cc2ccccc2)n1CCc1ccccc1 , can you help? < 10%

Endpoint output: inhibition of growth at 10 µM of O=c1c2ccccc2nc(SCc2ccc([N+](=O)[O-])cc2)n1CCc1ccccc1 . Value? < 10%

For the molecule shown here, O=c1c2ccccc2[nH]c(=S)n1CCc1ccccc1 , give the reported inhibition of growth at 10 µM. < 10%

inhibition of growth at 10 µM for CSc1nc2ccccc2c(=O)n1CCc1ccccc1 ? 34%

Form field: reported inhibition of growth at 10 µM of O=C(CSc1nc2ccccc2c(=O)n1CCc1ccccc1)c1ccccc1 < 10%

Could you tell me which inhibition of growth at 10 µM is on file for O=c1c2ccccc2nc(SCCN2CCOCC2)n1CCc1ccccc1 ? < 10%

---

# Test system: T47D
# testName: Cytotoxicity against Homo sapiens (human) T47D cells assessed as growth inhibition at 10 uM after 48 hr by coulter counter analysis
# Assay type: functional
# conditionParameters: read-out: GI
Let's look at some molecules and their measured inhibition of growth at 10 µM.
State just the number; it will be interpreted in %.

O=c1c2ccccc2nc(SCc2nnc(S)n2Cc2ccccc2)n1CCc1ccccc1 :: 38
O=C1c2ccccc2C(=O)N1CCCSc1nc2ccccc2c(=O)n1CCc1ccccc1 :: 30
CCn1c(S)nnc1CSc1nc2ccccc2c(=O)n1CCc1ccccc1 :: 27
O=C(CSc1nc2ccccc2c(=O)n1CCc1ccccc1)c1ccc(F)cc1 :: 18

# get_value(readout='inhibition of growth at 10 µM', item= O=c1c2ccccc2nc(SCc2ccc([N+](=O)[O-])cc2)n1CCc1ccccc1 ) 15

Form field: reported inhibition of growth at 10 µM of O=c1c2ccccc2nc(SCc2nnc(S)n2-c2ccccc2)n1CCc1ccccc1 38

For the molecule shown here, O=c1c2ccccc2nc(SCCN2CCCCC2)n1CCc1ccccc1 , give the reported inhibition of growth at 10 µM. 35

For CSc1nc2ccccc2c(=O)n1CCc1ccccc1 , what is its reported inhibition of growth at 10 µM? 59

---

# System: SNB-75
# testName: Cytotoxicity against Homo sapiens (human) SNB75 cells assessed as growth inhibition at 10 uM after 48 hr by coulter counter analysis
# Format: functional
# conditionParameters: SNB-75, 48 h, read-out: GI
The compounds listed here are annotated with their inhibition of growth at 10 µM.

O=c1c2ccccc2nc(SCc2nnc(S)n2-c2ccccc2)n1CCc1ccccc1 :: < 10%
CSc1nc2ccccc2c(=O)n1CCc1ccccc1 :: < 10%
O=c1c2ccccc2nc(SCc2nnc(S)n2Cc2ccccc2)n1CCc1ccccc1 :: < 10%
CCn1c(S)nnc1CSc1nc2ccccc2c(=O)n1CCc1ccccc1 :: < 10%
COc1ccc(-n2c(S)nnc2CSc2nc3ccccc3c(=O)n2CCc2ccccc2)cc1 :: < 10%
O=c1c2ccccc2nc(SCCN2CCCCC2)n1CCc1ccccc1 :: 13%

What value of inhibition of growth at 10 µM has been reported for the following compound? O=c1c2ccccc2[nH]c(=S)n1CCc1ccccc1 < 10%

Item O=C(CSc1nc2ccccc2c(=O)n1CCc1ccccc1)c1ccccc1 has what recorded inhibition of growth at 10 µM? 18%

Can you look up the measured inhibition of growth at 10 µM of O=C1c2ccccc2C(=O)N1CCCSc1nc2ccccc2c(=O)n1CCc1ccccc1 for me? < 10%

# inhibition of growth at 10 µM lookup, item O=c1c2ccccc2nc(SCc2ccc([N+](=O)[O-])cc2)n1CCc1ccccc1 < 10%

Given O=C(CSc1nc2ccccc2c(=O)n1CCc1ccccc1)c1ccc(F)cc1 , state its recorded inhibition of growth at 10 µM. < 10%

Query (compound): O=c1c2ccccc2nc(SCCN2CCOCC2)n1CCc1ccccc1 ; field requested: inhibition of growth at 10 µM < 10%

---

# Tested on: CCRF-CEM
# testName: Cytotoxicity against Homo sapiens (human) CCRF-CEM cells assessed as growth inhibition at 10 uM after 48 hr by coulter counter analysis
# Format: functional
# conditionParameters: read-out: GI
resultType: inhibition of growth at 10 µM
The reply should read as a number followed by its unit.

COc1ccc(-n2c(S)nnc2CSc2nc3ccccc3c(=O)n2CCc2ccccc2)cc1 :: 13%
CCn1c(S)nnc1CSc1nc2ccccc2c(=O)n1CCc1ccccc1 :: 27%

Tell me the measured inhibition of growth at 10 µM of O=c1c2ccccc2nc(SCc2nnc(S)n2Cc2ccccc2)n1CCc1ccccc1 , please. 13%

Endpoint output: inhibition of growth at 10 µM of O=c1c2ccccc2nc(SCc2nnc(S)n2-c2ccccc2)n1CCc1ccccc1 . Value? 28%

Look up inhibition of growth at 10 µM for this compound: O=c1c2ccccc2[nH]c(=S)n1CCc1ccccc1 16%

---

# Test system: SF-539
# testName: Cytotoxicity against Homo sapiens (human) SF539 cells assessed as growth inhibition at 10 uM after 48 hr by coulter counter analysis
# Format: functional
# conditionParameters: SF-539, 48 h, read-out: GI
Recorded inhibition of growth at 10 µM values for a group of compounds are listed next.

Example entries and their recorded answers appear below.
CCn1c(S)nnc1CSc1nc2ccccc2c(=O)n1CCc1ccccc1 :: < 10%
COc1ccc(-n2c(S)nnc2CSc2nc3ccccc3c(=O)n2CCc2ccccc2)cc1 :: < 10%
O=C(CSc1nc2ccccc2c(=O)n1CCc1ccccc1)c1ccc(F)cc1 :: 13%
CSc1nc2ccccc2c(=O)n1CCc1ccccc1 :: < 10%
O=C(CSc1nc2ccccc2c(=O)n1CCc1ccccc1)c1ccccc1 :: < 10%

From here, focus on the item given below.
What value of inhibition of growth at 10 µM has been recorded for this entry: O=c1c2ccccc2nc(SCCN2CCOCC2)n1CCc1ccccc1 < 10%

---

# testName: Cytotoxicity against Homo sapiens (human) NCI-ADR-RES cells assessed as growth inhibition at 10 uM after 48 hr by coulter counter analysis
# Format: functional
# conditionParameters: read-out: GI
resultType: inhibition of growth at 10 µM (%)
I only need the number, in %, no unit after it.

Example results:
O=c1c2ccccc2nc(SCc2nnc(S)n2Cc2ccccc2)n1CCc1ccccc1 :: 16
O=c1c2ccccc2nc(SCCN2CCCCC2)n1CCc1ccccc1 :: 13

Endpoint output: inhibition of growth at 10 µM of CCn1c(S)nnc1CSc1nc2ccccc2c(=O)n1CCc1ccccc1 . Value? 27

// query inhibition of growth at 10 µM value for entry CSc1nc2ccccc2c(=O)n1CCc1ccccc1 18

What value of inhibition of growth at 10 µM has been recorded for this entry: O=c1c2ccccc2nc(SCc2ccc([N+](=O)[O-])cc2)n1CCc1ccccc1 12

---

# System: M14
# testName: Cytotoxicity against Homo sapiens (human) M14 cells assessed as growth inhibition at 10 uM after 48 hr by coulter counter analysis
# Type: functional
# conditionParameters: M14, 48 h, read-out: GI
resultType: inhibition of growth at 10 µM

Consider the reported inhibition of growth at 10 µM for these compounds:
CCn1c(S)nnc1CSc1nc2ccccc2c(=O)n1CCc1ccccc1 :: 12%
O=c1c2ccccc2[nH]c(=S)n1CCc1ccccc1 :: < 10%
O=c1c2ccccc2nc(SCc2nnc(S)n2Cc2ccccc2)n1CCc1ccccc1 :: < 10%
CSc1nc2ccccc2c(=O)n1CCc1ccccc1 :: < 10%
COc1ccc(-n2c(S)nnc2CSc2nc3ccccc3c(=O)n2CCc2ccccc2)cc1 :: < 10%
O=c1c2ccccc2nc(SCCN2CCCCC2)n1CCc1ccccc1 :: < 10%

# lookup: inhibition of growth at 10 µM of O=C1c2ccccc2C(=O)N1CCCSc1nc2ccccc2c(=O)n1CCc1ccccc1 < 10%

Endpoint output: inhibition of growth at 10 µM of O=c1c2ccccc2nc(SCc2ccc([N+](=O)[O-])cc2)n1CCc1ccccc1 . Value? < 10%

Would you kindly share the measured inhibition of growth at 10 µM for O=c1c2ccccc2nc(SCCN2CCOCC2)n1CCc1ccccc1 ? < 10%

Recorded inhibition of growth at 10 µM of O=C(CSc1nc2ccccc2c(=O)n1CCc1ccccc1)c1ccc(F)cc1 , please. < 10%

Quick one: inhibition of growth at 10 µM for O=C(CSc1nc2ccccc2c(=O)n1CCc1ccccc1)c1ccccc1 ? < 10%

Give its inhibition of growth at 10 µM value. Item: O=c1c2ccccc2nc(SCc2nnc(S)n2-c2ccccc2)n1CCc1ccccc1 < 10%
